This section lists Ki readings for Vitamin K-dependent protein C (Homo sapiens, UniProt P04070).
readout: Ki (nM)

* N=C(N)c1ccc(CNC(=O)C2(NC(=O)[C@H](NCC(=O)O)C3CCCCC3)Cc3ccccc3C2)cc1 | 500
* N=C(N)NCCC[C@H](NC(=O)[C@@H](CC1CCCCC1)NCC(=O)O)C(=O)NCc1ccc(C(=N)N)cc1 | 100
* N=C(N)NCCC[C@H](NC(=O)[C@H](N)C1CCCCC1)C(=O)NCc1ccc(C(=N)N)cc1 | 500
* N=C(N)c1ccc(CNC(=O)C(Cc2ccc(CN)cc2)NC(=O)[C@@H](CC2CCCCC2)NCC(=O)O)cc1 (mixture of isomers) | 300
* N=C(N)c1ccc(CNC(=O)[C@H](Cc2cccc3ccccc23)NC(=O)[C@@H](CC2CCCCC2)NCC(=O)O)cc1 | 300
* N=C(N)c1ccc(CNC(=O)C(CCC2CCNCC2)NC(=O)[C@@H](CC2CCCCC2)NCC(=O)O)cc1 (mixture of isomers) | 300

* * *

Biological target: Coagulation factor XI (Homo sapiens)
Assay: Competitive inhibition of human coagulation factor 11a using S-2366 as substrate
The following molecules are shown together with reported Ki values.
readout: Ki (µM)

- N=C(N)c1ccc(CNC(=O)[C@H](Cc2ccc(N)cc2)NC(=O)[C@@H](CC2CCCCC2)NCC(=O)O)cc1: 0.3
- N=C(N)c1ccc(CNC(=O)C(Cc2ccc(CN)cc2)NC(=O)[C@@H](CC2CCCCC2)NCC(=O)O)cc1 (mixture of isomers): 19

* * *

Assay: Lipophilicity, log D of the compound at pH 7.4 by chromatographic method
Type: physicochemical
Details: buffer
readout: chromatographic logD

• N=C(N)c1ccc(CNC(=O)[C@H](Cc2cccc3ccccc23)NC(=O)[C@@H](CC2CCCCC2)NCC(=O)O)cc1 = 1.97
• N=C(N)c1ccc(CNC(=O)C2(NC(=O)[C@H](NCC(=O)O)C3CCCCC3)Cc3ccccc3C2)cc1 = 0.93
• N=C(N)c1ccc(CNC(=O)[C@H](Cc2ccc(O)cc2)NC(=O)[C@@H](CC2CCCCC2)NCC(=O)O)cc1 = 0.02

* * *

Target: Coagulation factor VII (Homo sapiens)
Assay: Inhibition of human coagulation factor 7a using spectrozyme as substrate preincubated for 300 seconds followed by substrate addition measured after 40 mins by spectrophotometric analysis in presence of tissue factor
readout: IC50 (µM)

* N=C(N)c1ccc(CNC(=O)[C@@H]2CCN2C(=O)[C@H](NCC(=O)O)C2CCCCC2)cc1 | 3.3
* N=C(N)c1ccc(CNC(=O)C2(NC(=O)[C@H](NCC(=O)O)C3CCCCC3)Cc3ccccc3C2)cc1 | 8.9

* * *

The following compounds are shown together with reported pKi values.
Biological target: Prothrombin (Homo sapiens, UniProt P00734)
pKi: −log10 of the molar value.
readout: pKi

- N=C(N)c1ccc(CNC(=O)[C@H](Cc2ccccc2)NC(=O)[C@@H](CC2CCCCC2)NCC(=O)O)cc1: 5.52
- N=C(N)NCCC[C@H](NC(=O)[C@@H](CC1CCCCC1)NCCC(=O)O)C(=O)NCc1ccc(C(=N)N)cc1: 5.52
- N=C(N)c1ccc(CNC(=O)[C@H](Cc2ccc(O)cc2)NC(=O)[C@@H](CC2CCCCC2)NCC(=O)O)cc1: 5.70
- N=C(N)c1ccc(CNC(=O)[C@H](Cc2ccc(N)cc2)NC(=O)[C@@H](CC2CCCCC2)NCC(=O)O)cc1: 6.30

* * *

The following molecules are shown together with reported Ratio IC50 values.
Organism: Homo sapiens
Assay: Selectivity ratio of IC50 for human thrombin to IC50 for human APC
readout: Ratio IC50

* N=C(N)c1ccc(CNC(=O)C(CC2CCNCC2)NC(=O)[C@@H](CC2CCCCC2)NCC(=O)O)cc1 (mixture of isomers) | 9.1
* N=C(N)c1ccc(CNC(=O)[C@H](Cc2ccc(N)cc2)NC(=O)[C@@H](CC2CCCCC2)NCC(=O)O)cc1 | 6.9
* N=C(N)c1ccc(CNC(=O)[C@H](Cc2cccc3ccccc23)NC(=O)[C@@H](CC2CCCCC2)NCC(=O)O)cc1 | 11

* * *

pIC50: −log10 of the molar value.
This section lists pIC50 readings for UniProt P00734.
readout: pIC50

• N=C(N)c1ccc(CNC(=O)C(CC2CCNCC2)NC(=O)[C@@H](CC2CCCCC2)NCC(=O)O)cc1 (mixture of isomers) = 4.92
• N=C(N)c1ccc(CNC(=O)[C@H](Cc2ccc3ccccc3c2)NC(=O)[C@@H](CC2CCCCC2)NCC(=O)O)cc1 = 5.28
• N=C(N)c1ccc(CNC(=O)C(CCC2CCNCC2)NC(=O)[C@@H](CC2CCCCC2)NCC(=O)O)cc1 (mixture of isomers) = 4.66
• N=C(N)c1ccc(CNC(=O)[C@H](CC2CCCN2)NC(=O)[C@@H](CC2CCCCC2)NCC(=O)O)cc1 (mixture of isomers) = 5.15

meta.source: ChEMBL document CHEMBL3112440
